TARGET_OR_TEST_SYSTEM: Abl WT (Homo sapiens (Human))
Sequence (P00519 whole entry): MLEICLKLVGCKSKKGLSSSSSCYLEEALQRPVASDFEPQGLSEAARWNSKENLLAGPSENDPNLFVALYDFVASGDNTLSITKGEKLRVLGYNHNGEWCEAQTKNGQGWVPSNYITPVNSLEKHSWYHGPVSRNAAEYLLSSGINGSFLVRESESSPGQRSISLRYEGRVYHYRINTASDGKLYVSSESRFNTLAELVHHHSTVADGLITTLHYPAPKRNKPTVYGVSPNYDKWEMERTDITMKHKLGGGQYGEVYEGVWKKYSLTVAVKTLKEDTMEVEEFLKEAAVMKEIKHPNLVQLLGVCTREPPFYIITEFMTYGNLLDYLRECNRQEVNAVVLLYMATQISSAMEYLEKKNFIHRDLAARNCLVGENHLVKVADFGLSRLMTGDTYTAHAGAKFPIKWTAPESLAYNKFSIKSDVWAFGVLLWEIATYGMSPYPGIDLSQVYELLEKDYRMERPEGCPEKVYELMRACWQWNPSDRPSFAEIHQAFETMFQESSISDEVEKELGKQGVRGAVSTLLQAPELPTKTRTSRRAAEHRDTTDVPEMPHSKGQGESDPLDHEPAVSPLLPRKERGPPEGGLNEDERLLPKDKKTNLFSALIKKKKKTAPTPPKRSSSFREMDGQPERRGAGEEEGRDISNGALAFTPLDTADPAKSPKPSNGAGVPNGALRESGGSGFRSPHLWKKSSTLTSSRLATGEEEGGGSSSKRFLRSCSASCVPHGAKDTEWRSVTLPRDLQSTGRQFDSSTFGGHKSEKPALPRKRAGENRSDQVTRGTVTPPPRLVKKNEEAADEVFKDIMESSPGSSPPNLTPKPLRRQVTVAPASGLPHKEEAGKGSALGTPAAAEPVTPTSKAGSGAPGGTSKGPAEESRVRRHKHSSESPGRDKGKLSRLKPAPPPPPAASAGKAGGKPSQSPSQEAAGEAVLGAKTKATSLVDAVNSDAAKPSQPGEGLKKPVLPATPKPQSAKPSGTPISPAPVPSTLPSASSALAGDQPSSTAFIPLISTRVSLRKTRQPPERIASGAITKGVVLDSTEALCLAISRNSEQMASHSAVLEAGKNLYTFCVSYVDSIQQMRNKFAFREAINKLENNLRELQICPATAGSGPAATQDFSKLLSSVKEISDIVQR
ASSAY_TEXT: Reaction Biology Corp. kinase assay, Abl WT
Type: biochemical
RUN_CONDITIONS: 10 μM; compounds tested by Reaction Biology Corp.; read-out: % inhibition of kinase activity, Abl WT (category)
# inhibition at 10 µM annotations

Worked set:
>  <COMPOUND_STRING>
COC(=O)c1cc2cc(NC(=O)c3cc(NC(=O)c4ccc(CN5CCN(C)CC5)cc4)ccc3C)cnc2[nH]1

>  <ASSAY_RESULT>
> 50%

$$$$
>  <COMPOUND_STRING>
COC(=O)c1cc2cc(NC(=O)c3ccccc3C(F)(F)F)cnc2[nH]1

>  <ASSAY_RESULT>
> 50%

$$$$
>  <COMPOUND_STRING>
COC(=O)c1cc2cc(NC(=O)c3cccs3)cnc2[nH]1

>  <ASSAY_RESULT>
10 to 50%

$$$$

[ask] Quick one: inhibition at 10 µM for "COC(=O)c1cc2cc(NC(=O)c3cc(C)n[nH]3)cnc2[nH]1" ?
[reply] > 50%
